# MEASUREMENT_TARGET: T1, CTLA4-his (UniProt P16410 36-161, limits assumed)
# T1 construct: construct not described; also called Ag CTLA4-his; Antigen CTLA4-his; not shown: his tag
# T1 sequence (looked up): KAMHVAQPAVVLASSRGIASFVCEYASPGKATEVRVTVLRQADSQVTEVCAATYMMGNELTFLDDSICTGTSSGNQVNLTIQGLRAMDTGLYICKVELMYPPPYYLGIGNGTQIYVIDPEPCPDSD
# PROTOCOL_DESCRIPTION: SPR Biacore T200, antibody from supernatant captured by anti-human Fc, CTLA4-his injected
MEASURED_METRIC: log10 of koff (log10 of the value in s⁻¹)

# BINDER, DATA_VALUE
data = [
    ("Humanized Ab 4 (VH2 + VL1) (antibody, human IgG1, kappa, V domains shown, Humanized IgG1 derived from MAb A4, full length, HEK293) VH: QVQLVQSGAEVKKPGASVKVSCKASGYKFTDHFINWVRQAPGQGLEWIGDINPNNGGTNSNQKFEGRVTMTVDTSISTAYMELSRLRSDDTAVYYCARLRREYFYAMDYWGQGTLVTVSS VL: DIVMTQSPLSLPVTPGEPASISCRSSKSLLHSNGITYLYWYLQKPGQSPQLLIYQMSNLASGVPDRFSGSGSGTDFTLKISRVEAEDVGVYYCAQNLELPLTFGGGTKVEIKR", -3.21),
    ("Humanized Ab 7 (VH3 + VL1) (antibody, human IgG1, kappa, V domains shown, Humanized IgG1 derived from MAb A4, full length, HEK293) VH: QVQLVQSGAEVKKPGASVKVSCKASGYKFTDHFINWVKQAPGQGLEWIGDINPNNGGTNSNQKFEGRVTLTVDTSISTAYMELSRLRSDDTAVYYCARLRREYFYAMDYWGQGTLVTVSS VL: DIVMTQSPLSLPVTPGEPASISCRSSKSLLHSNGITYLYWYLQKPGQSPQLLIYQMSNLASGVPDRFSGSGSGTDFTLKISRVEAEDVGVYYCAQNLELPLTFGGGTKVEIKR", -3.36),
    ("Humanized Ab 1 (VH1 + VL1) (antibody, human IgG1, kappa, V domains shown, Humanized IgG1 derived from MAb A4, full length, HEK293) VH: QVQLVQSGAEVKKPGASVKVSCKASGYKFTDHFINWVRQAPGQGLEWMGDINPNNGGTNSNQKFEGRVTMTRDTSISTAYMELSRLRSDDTAVYYCARLRREYFYAMDYWGQGTLVTVSS VL: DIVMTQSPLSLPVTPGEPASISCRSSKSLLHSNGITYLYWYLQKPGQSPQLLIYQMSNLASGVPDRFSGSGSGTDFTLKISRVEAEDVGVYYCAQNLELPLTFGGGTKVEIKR", -3.47),
    ("chimeric IgG (antibody, V domains shown, Variable domains of MAb A4 on human IgG1 and kappa, expressed in HEK293; also called murine-human chimeric antibody derived from murine antibody A4) VH: EVQLRQSGPELVKPGTSVKISCKASGYKFTDHFINWVKQNHGKSLEWIGDINPNNGGTNSNQKFEGKATLTVDKSSSTAYMELRSLTSEDSAVYYCARLRREYFYAMDYWGQGTSVTVSS VL: DIVMTQAAFSNPVTLGTSASISCRSSKSLLHSNGITYLYWYLQKPGQSPQLLIYQMSNLASGVPDRFSSSGSGTDFTLRISRVEAEDVGVYYCAQNLELPLTFGAGTKLELKR", -4.59),
    ("Humanized Ab 13 (VH5 + VL3) (antibody, human IgG1, kappa, V domains shown, Humanized IgG1 derived from MAb A4, full length, HEK293) VH: QVQLVQSGAEVVKPGASVKISCKASGYKFTDHFINWVKQNPGQGLEWIGDINPNNGGTNSNQKFEGRATLTVDTSISTAYMELSRLRSDDTAVYYCARLRREYFYAMDYWGQGTLVTVSS VL: DIVMTQSPLSLPVTPGEPASISCRSSKSLLHSNGITYLYWYLQKPGQSPQLLIYQMSNLASGVPDRFSSSGSGTDFTLKISRVEAEDVGVYYCAQNLELPLTFGGGTKLEIKR", -3.80),
    ("Humanized Ab 10 (VH4 + VL1) (antibody, human IgG1, kappa, V domains shown, Humanized IgG1 derived from MAb A4, full length, HEK293) VH: QVQLVQSGAEVKKPGASVKISCKASGYKFTDHFINWVKQAPGQGLEWIGDINPNNGGTNSNQKFEGRATLTVDTSISTAYMELSRLRSDDTAVYYCARLRREYFYAMDYWGQGTLVTVSS VL: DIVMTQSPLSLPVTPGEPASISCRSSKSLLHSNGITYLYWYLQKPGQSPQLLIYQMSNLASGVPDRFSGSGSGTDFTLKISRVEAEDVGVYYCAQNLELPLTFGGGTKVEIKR", -3.54),
    ("Humanized Ab 8 (VH3 + VL2) (antibody, human IgG1, kappa, V domains shown, Humanized IgG1 derived from MAb A4, full length, HEK293) VH: QVQLVQSGAEVKKPGASVKVSCKASGYKFTDHFINWVKQAPGQGLEWIGDINPNNGGTNSNQKFEGRVTLTVDTSISTAYMELSRLRSDDTAVYYCARLRREYFYAMDYWGQGTLVTVSS VL: DIVMTQSPLSLPVTPGEPASISCRSSKSLLHSNGITYLYWYLQKPGQSPQLLIYQMSNLASGVPDRFSSSGSGTDFTLKISRVEAEDVGVYYCAQNLELPLTFGGGTKVEIKR", -3.28),
]

The origin of these recorded values is patent US20200055937A1.
